# Target System: Fibrinogen beta chain (Homo sapiens)
# Run Description: inhibitors of Tn7 peptide binding to fibrin DD(E), confirmation, biochemical, fluorescence polarization, human fibrin, Tn7 probe (AID 720628);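 further: 100% = median FP of high control wells holding Aha-Tn7 inhibitor peptide; displacers lower polarization since freed probe rises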
# Assay Context: FP displacement of TRITC-Tn7 peptide from DD(E); at 8.3 µM; stronger effect = higher value; 0% set at plate's compound-well median
This is one part of the list. Calls of active or inactive are those of the source.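 How the source made its calls: active means inhibition above the campaign cutoff, the mean of compounds within control limits plus 3 SD (cut at about 14% in these data); inactive means the rest.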
Below: a set of entries, each annotated with reported inhibition.

1. Cc1nn(C)cc1N1C(=O)c2cccc3c(N)ccc(c23)C1=O ... 12.5% (inactive)
2. CC(C)(C)c1cc(CN2CCN(CCC#N)CC2)cc(C(C)(C)C)c1O ... 3.96% (inactive)

What measured inhibition goes with CN1C(=O)c2cccc3c(N)ccc(c23)C1=O ?
30.8% (active)

* * *

# Target System: Fibrinogen beta chain (Homo sapiens) (UniProt P02675)
# Sequence (P02675 whole entry, looked up): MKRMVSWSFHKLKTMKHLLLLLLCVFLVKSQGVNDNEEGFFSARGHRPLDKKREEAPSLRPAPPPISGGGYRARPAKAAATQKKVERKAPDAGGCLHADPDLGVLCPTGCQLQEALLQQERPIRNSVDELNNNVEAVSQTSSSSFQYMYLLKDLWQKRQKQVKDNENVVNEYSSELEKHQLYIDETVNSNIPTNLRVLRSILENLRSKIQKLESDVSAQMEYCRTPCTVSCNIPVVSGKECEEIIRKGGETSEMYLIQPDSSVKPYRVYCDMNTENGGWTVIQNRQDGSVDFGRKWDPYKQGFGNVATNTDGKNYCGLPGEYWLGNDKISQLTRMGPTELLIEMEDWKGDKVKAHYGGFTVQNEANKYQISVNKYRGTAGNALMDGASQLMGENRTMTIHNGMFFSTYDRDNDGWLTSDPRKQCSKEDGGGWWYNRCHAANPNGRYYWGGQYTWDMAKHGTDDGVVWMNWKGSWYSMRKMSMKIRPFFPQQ
# Run Description: inhibitors of Tn7 peptide binding to fibrin DD(E), confirmation, biochemical, fluorescence polarization, human fibrin, Tn7 probe (AID 720628);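 further: 100% = median FP of high control wells holding Aha-Tn7 inhibitor peptide; displacers lower polarization since freed probe rises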
# Assay Context: FP displacement of TRITC-Tn7 peptide from DD(E); at 8.3 µM; 0% set at plate's compound-well median
Some of the results follow. Activity calls are given as the source filed them.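 How the source made its calls: active means inhibition above the campaign cutoff, the mean of compounds within control limits plus 3 SD (cut at about 14% in these data); inactive means the rest.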
The reply should be one of these categories: true (1) = active, false (0) = inactive

1) Cc1nnc2n1N=C(c1ccc3c(c1)NC(=O)CO3)CS2 ... false (0)

Below: the item to evaluate.
Test call for this compound, please: O=C(COC(=O)/C=C/c1ccc(OC(F)F)cc1)NC1CCCCC1
false (0)

* * *

# Target System: Fibrinogen beta chain (Homo sapiens)
# Run Description: inhibitors of Tn7 peptide binding to fibrin DD(E), confirmation, biochemical, fluorescence polarization, human fibrin, Tn7 probe (AID 720628);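 further: 100% = median FP of high control wells holding Aha-Tn7 inhibitor peptide; displacers lower polarization since freed probe rises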
# Assay Context: FP displacement of TRITC-Tn7 peptide from DD(E); at 8.3 µM; 0% set at plate's compound-well median
The list shows a part of the results. Activity calls are given as the source filed them.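 Rule for the calls: active = inhibition above the campaign cutoff, the mean of compounds within control limits plus 3 SD (cut at about 14% in these data); inactive = the rest.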
Please answer using one outcome listed in label 1 = active, label 0 = inactive

Below are worked cases with known answers.
1) O=C(Nc1ccon1)c1sc2ccccc2c1Cl ... label 0
2) CN1c2ccc(C=O)c3c(C=O)ccc(c23)N(C)C1(C)C ... label 0
3) COc1cc(C(=S)N2CCOCC2)ccc1O ... label 0
4) COc1ccc(S(=O)(=O)c2c[nH]c(=S)[nH]c2=O)cc1Cl ... label 0
5) Oc1ccc2ccc3cccc[n+]3c2c1 ... label 1
6) COc1cccc(N2CC(NS(=O)(=O)c3cccs3)CC2=O)c1 (stereo unspecified) ... label 0

Assay result, entry O=C(/C=C/c1ccccc1[N+](=O)[O-])NCC1CCCO1 (stereo unspecified) — outcome?
label 0

Write down the call the test reported for this compound. Item: OC(c1ccccc1)c1nc(-c2cnc3ccccc3c2)cs1 (stereo unspecified)
label 0

* * *

# Target System: Fibrinogen beta chain (Homo sapiens)
# Run Description: inhibitors of Tn7 peptide binding to fibrin DD(E), confirmation, biochemical, fluorescence polarization, human fibrin, Tn7 probe (AID 720628);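 further: 100% = median FP of high control wells holding Aha-Tn7 inhibitor peptide; displacers lower polarization since freed probe rises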
# Assay Context: FP displacement of TRITC-Tn7 peptide from DD(E); at 8.3 µM; stronger effect = higher value; 0% set at plate's compound-well median
The other results are listed elsewhere or left out.
Reported inhibition values follow for various compounds
Report the value in % with no unit label.

1. Cc1cc2nc3c(=O)[nH]c(=O)nc-3n(C[C@H](O)[C@H](O)[C@H](O)CO)c2cc1C ... 53.3
2. COc1ccc(N=Nc2c(-c3ccc(OC)cc3)[nH]oc2=O)cc1 ... -2.03

Query compound follows.
State the recorded inhibition for this entry: Cn1c(CC(=O)NNC(=O)c2ccccc2F)nc2ccccc21
4.13

src = PubChem BioAssay AID720628
